# assay_remarks: Intrinsic clearance in human liver microsomes at 0.5 uM measured per mg of protein by LC-MS/MS analysis
# Format: ADME, Microsome

{"columns": ["chem_smiles", "measure_unit", "microsomal CLint at 0.5 µM"],
 "data": [
  ["O=C(c1cccc(O)c1)c1ccc(-c2ccc(O)c(Cl)c2)s1", "µL/min/mg", 12.9]
]}

The measured values listed here are drawn from ChEMBL document CHEMBL1275393.
